meta.source: ChEMBL document CHEMBL4616663

Test system: HCT-116
Experiment Notes: Cytotoxicity against human HCT116 cells at 50 uM by MTT assay
Format: functional, cell-based
Active and inactive are the calls of the source. The rule behind the calls is not given here.

Line Notation: C[C@@H]1CC[C@H](O)C(=O)CCCC(=O)Cc2c(Cl)c(O)cc(O)c2C(=O)O1
Activity: inactive

Line Notation: C[C@@H]1C[C@@H](O)/C=C\CCCC(=O)Cc2c(Cl)c(O)cc(O)c2C(=O)O1
Activity: inactive

Line Notation: C[C@@H]1C/C=C/CC/C=C/[C@@H](O)CC(=O)Cc2c(Cl)c(O)cc(O)c2C(=O)O1
Activity: inactive
